These entries and their values trace back to patent EP3959993B1.

Test: Influence of the amount of NaCl on the distribution between oil phase and water phase (Example 5)
Format: physicochemical
Settings: NaCl 27.8 %
metric name: Distribution in [%] between oil phase and water phase after condensation: Oil phase (%)

compound	unit of measure	quantitative readout
CC(=O)OCCc1ccccc1 [phenylethyl acetate]	%	96.9
O=Cc1ccccc1	%	57.5
CCCCCCCO	%	100
CCC/C=C/COC(C)=O [trans-2-hexenyl acetate]	%	97.2
CCC(C)CO (centres unmarked)	%	69
CCCCCC=O	%	100
CCOC(=O)C(C)CC (centres unmarked) [ethyl 2-methyl butyrate]	%	95
CCOC(=O)CC [ethyl propionate]	%	0
CCCCOC(C)=O [butyl acetate]	%	85.6
CCCC(CC=O)OCC (centres unmarked)	%	78.9
CCCCCCOC(C)=O [hexyl acetate]	%	99.4
CC(C)CCO	%	39
CCCCCO	%	56.8
CCC/C=C/C=O [trans-2-hexenal]	%	63.6
CCOC(C)=O [ethyl acetate]	%	20.8
CC/C=C\CCOC(C)=O [cis-3-hexenyl acetate]	%	100
CCCCCC(=O)O	%	84.9
CCC/C=C/CO [trans-2-hexenol]	%	73.6
CCC(C)COC(C)=O (centres unmarked) [2-methyl butyl acetate]	%	97.1
CCCC(=O)OCC [ethyl butyrate]	%	85.1

* * *

Assay: Influence of the amount of NaCl on the distribution between oil phase and water phase (Example 5)
Type: physicochemical
Conditions: NaCl 69.44 %
Readings of Distribution in [%] between oil phase and water phase after condensation: Oil phase for the listed compounds
metric name: Distribution in [%] between oil phase and water phase after condensation: Oil phase (%)

compound	quantitative readout
CCCCCCO	97.5
CCC/C=C/COC(C)=O [trans-2-hexenyl acetate]	100
CCCCCCCO	100
CCOC(=O)C(C)CC (stereo not drawn) [ethyl 2-methyl butyrate]	99.7
CC(=O)OCCc1ccccc1 [phenylethyl acetate]	100
CCC(C)COC(C)=O (stereo not drawn) [2-methyl butyl acetate]	99.7

* * *

Test: Influence of the amount of NaCl on the distribution between oil phase and water phase (Example 5)
Format: physicochemical
Details: NaCl 41.67%
The entries below come with measured Distribution in [%] between oil phase and water phase after condensation: Water phase values attached.
metric name: Distribution in [%] between oil phase and water phase after condensation: Water phase (%)

compound	unit of measure	quantitative readout
CC/C=C\CCOC(C)=O [cis-3-hexenyl acetate]	%	0
CCCCOC(C)=O [butyl acetate]	%	7.5
CCC(C)CO (stereo not shown)	%	35.6
CCC(C)COC(C)=O (stereo not shown) [2-methyl butyl acetate]	%	1.4
CCCCCC(=O)O	%	8.5
O=Cc1ccccc1	%	35.3
CCOC(=O)C(C)CC (stereo not shown) [ethyl 2-methyl butyrate]	%	2.1

* * *

Assay: Second oil phase obtained by adding NaCl to the water phase (Example 4)
Type: physicochemical
Details: after separating oil phases I and II
Experimental: Cross linked polystyrene was used as adsorbent material. The volume flux for loading the adsorbent was 300 ml/min. The adsorbent was heated to 150 °C, the temperature of the applied water steam was 160 °C. The water steam flux was 10 g/min and was applied for 100 min. The oil and water phases were separated. A second oil phase was separated and was collected.
metric name: Loss in the water phase

molecule	result
CC/C=C/CCO [trans-3-hexenol]	2,7%
CCCCOC(C)=O [butyl acetate]	1,4%
CCCC(CC=O)OCC (stereo not drawn) [3-ethoxy-hexanal]	1,5%
O=Cc1ccccc1 [benzaldehyde]	19,2%
CC(C)CCO [3-methyl butanol]	17,9%
CCC/C=C/CO [trans-2-hexenol]	6,0%
CC/C=C\CCO [cis-3-hexenol]	10,8%
CCC(C)CO (stereo not drawn) [2-methyl butanol]	17,3%
CCCCCCCO [heptanol]	0,0%
CCOC(=O)C(C)CC (stereo not drawn) [ethyl 2-methyl butyrate]	0,0%
CCC/C=C/C=O [trans-2-hexenal]	12,5%
CCOC(C)=O [ethyl acetate]	54,8%
CCC/C=C/COC(C)=O [trans-2-hexenyl acetate]	0,0%
CCCCCC=O [hexanal]	0,0%
CCCCCCOC(C)=O [hexyl acetate]	0,0%
